# MEASUREMENT NOTES: Toxicity liver stage against HepG2, at 10uM
# Type: cell-based
# Design: test concentration 10 uM, cell line HepG2-A16-CD81EGFP
# SETTINGS: human, HepG2-A16-CD81EGFP cells; read-out: INHIBITION
VALUE TYPE: cytotoxicity at 10 µM (%)
Value expressed in %; do not type the unit.

The compound Cc1cc2[nH]c(=O)oc2cc1S(=O)(=O)N1CCC(N2CCCC2=O)CC1 showed cytotoxicity at 10 µM equal to 1.54

Data point: O=C(Cc1ccccn1)N1CCN(C(=O)CC2CCCC2)CC1 ; cytotoxicity at 10 µM = -10.5

// sample CC(C)C1SCC(=O)Nc2c1cnn2-c1ccc(F)cc1 (stereo not drawn) , its cytotoxicity at 10 µM was 1.23

Sample CC(C)(C)n1nc(C(=O)NCC2(C(N)=O)CCOCC2)cc1C1CC1 ; cytotoxicity at 10 µM observed: -15.9

Note to self: cytotoxicity at 10 µM recorded for Cc1noc(C)c1CN(C)C(=O)c1n[nH]c(N)c1-c1ccccc1 was -7.46

Item: Cc1c(C(=O)N2CCCC(C(=O)c3nccn3C)C2)c[nH]c(=O)c1C#N (stereo not drawn) | cytotoxicity at 10 µM: 5.73

Per the record, O=C(NCc1ccccn1)c1cc2n(n1)CCNC2 has cytotoxicity at 10 µM of 1.19

Reported cytotoxicity at 10 µM for CC(C)n1cc(CN2CCCN(C(=O)c3cccn3C)CC2)cn1 was 1.51

Note to self: cytotoxicity at 10 µM recorded for CCc1cc(C(=O)N2CCCC(Cc3ccc(NC)nn3)C2)on1 (stereo not drawn) was -14.1

Consider COc1nccnc1N1CCC2(CC1)C(=O)N(C)c1ccccc12 . Its measured cytotoxicity at 10 µM is -4.89

Per the records, this compound ( FC(F)(F)COc1ccc(CSCc2ccon2)cn1 ) has cytotoxicity at 10 µM equal to -4.52

Summary for this compound, Brc1ccc(NCCCOC2CCOCC2)nc1 : cytotoxicity at 10 µM is 1.52

cytotoxicity at 10 µM reading for Cc1cc(C)cc(OCCN(C)Cc2cscn2)c1 : 6.56

Cc1cc(N(Cc2ccon2)S(C)(=O)=O)ccc1Br has a reported cytotoxicity at 10 µM of 4.51

The measured cytotoxicity at 10 µM associated with COCCNc1ccccc1CNC(=O)C1CCCOC1 (stereo not drawn) reads -8.3

// Cc1nnc(CN(C)Cc2nc3c(s2)CCCC3)o1 : cytotoxicity at 10 µM value = -1.42

Field cytotoxicity at 10 µM (entry CN(Cc1ccncc1)Cc1cnn(-c2ccc(F)cc2)c1 ) reads 10

Sure, the documented cytotoxicity at 10 µM for NC(=O)C1CCN(CCc2ccc(NCc3ccoc3)cc2)CC1 is -26.2

Reported cytotoxicity at 10 µM of Cc1cc(CN2CCN(C(=O)NCc3csc(C)n3)CC2)on1 : -2.95

Form: compound = c1cnn(Cc2cnc3n2CCN(CC2CCCCC2)C3)c1 ; cytotoxicity at 10 µM = -78.8

response.value for N#Cc1csc(CNCCOc2ccccc2)c1 (field: cytotoxicity at 10 µM) = 8.35

Note to self: cytotoxicity at 10 µM recorded for CS(=O)(=O)c1cncnc1C1CCCN(C(=O)Nc2ccc(F)cc2)C1 (stereo not drawn) was -1.86

Value of cytotoxicity at 10 µM reported for the compound CS(=O)(=O)NCC1CCCCN1C(=O)c1cccc(C(F)(F)F)c1 (stereo not drawn) is -2.02

According to the records, this compound CN1CCCC1c1cc2cccnc2n1Cc1ccc(F)cc1 (stereo not drawn) displays cytotoxicity at 10 µM of 5.44

cytotoxicity at 10 µM recorded for this compound, CCc1nnc2n1CCN(C(=O)c1ccc3c(c1)NC(=O)CO3)C2 , is 1.24

Per the record, CC(C)Cc1cc(C(=O)N2CCC(Cc3cnn(C)c3)C2)cc(O)n1 (stereo not drawn) has cytotoxicity at 10 µM of -2.1

Item: CC(C)Oc1cccc(C(O)CNC(=O)Nc2cccs2)c1 (stereo not drawn) | cytotoxicity at 10 µM: 2.19

The measured cytotoxicity at 10 µM associated with O=C1NCC2(CCCN(C(=O)c3ccc4c(c3)CCO4)C2)O1 (stereo not drawn) reads 2.32

The compound listed as CCNc1nc(C)c(C(=O)N(C)Cc2noc(C)n2)s1 shows cytotoxicity at 10 µM equal to 2.43

Recorded cytotoxicity at 10 µM (compound COc1cc2[nH]c(=O)c(CN3CCCC3C)cc2c(OC)c1OC (stereo not drawn) ): -7.74

Noted for O=C(Cc1ccc(-n2cccn2)cc1)N1CCCC(n2cccn2)C1 (stereo not drawn) : its cytotoxicity at 10 µM reads 4.6

The value of cytotoxicity at 10 µM measured for the compound CN(C)c1nc(N)nc(CN2CCCC(c3ccccc3)CC2)n1 (stereo not drawn) turned out to be 5.47

cytotoxicity at 10 µM recorded for this compound, O=C(c1ccc(-n2cccn2)nc1)N1CCCC(c2cnccn2)C1 (stereo not drawn) , is 4.32

Form: compound = CN(C)C(=O)c1cccc(C[S+]([O-])CC(=O)NC2CCCC2)c1 (stereo not drawn) ; cytotoxicity at 10 µM = 5.79

// recorded cytotoxicity at 10 µM for Cc1cc(C)nc(N2CCc3ccc(OC(F)F)cc3C2)n1 : 2.68

get_value(item= CCC(=O)N1CCC2(CC1)C(c1cccnc1)CC(=O)N2CCOC (stereo not drawn) , readout=cytotoxicity at 10 µM) returns -94.1

// cytotoxicity at 10 µM lookup, compound = COc1cccc(Cn2ncnc2CNC(C)=O)c1 , result: 0.15

So, COc1ccc(CN2C[C@@H](CN(C)C)[C@@H](CO)C2)c(Cl)c1OC ? Its cytotoxicity at 10 µM was -8.44

Lookup result for O=C(Cc1cccc(F)c1)NCCNCc1cccnc1 ; measured cytotoxicity at 10 µM: -1.56

Given item CNS(=O)(=O)c1ccc(C(=O)Nc2ccc3c(c2)C(=O)NC3)cc1 , the value recorded as its cytotoxicity at 10 µM is -8.04

Value of cytotoxicity at 10 µM reported for the compound Cn1cccc1-c1cc(C(=O)N2CCCC2c2cccnc2)[nH]n1 (stereo not drawn) is -9.32

Record CC(C)(C)CN1CCCC2(CCN(C(=O)c3cn[nH]c3)C2)C1 (stereo not drawn) . Reported cytotoxicity at 10 µM: 2.87

The value of cytotoxicity at 10 µM measured for the compound CSCC(=O)N1CCCCC1Cn1cc(C)cn1 (stereo not drawn) turned out to be -8.24

Value of measured cytotoxicity at 10 µM for the entry O=C1CC2(CCCCC2)CC(=O)N1CC(O)COCc1ccc(Cl)cc1 (stereo not drawn) : -1.04

// cytotoxicity at 10 µM value for CO[C@H]1CN(C(=O)c2ccc3oc(C)cc3c2)C[C@@]12CCCO2 : -6.14

Cc1ccc(CN2CCC[C@]3(C(=O)O)CN(c4ncccn4)C[C@@H]3C2)o1 has a reported cytotoxicity at 10 µM of -11.3

For reference, reported cytotoxicity at 10 µM for Cc1ccccc1N1CCN(C(=O)c2cccnc2-n2cncn2)CC1 stands at 8.35

Item: CS(=O)(=O)NCc1cncc2c1CCN(C(=O)N1CCCC1)C2 | cytotoxicity at 10 µM: 12.8
